B1: RAB40A (parent)
chain: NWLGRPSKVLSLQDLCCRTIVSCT

variants of: B1; assay: protein stability index of a GFP-peptide fusion (GPS, HEK-293T) (PSI 1-6); higher = more stable; details: c terminus: a fixed tail appended;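 note: lentivirally expressed fusions sorted by FACS into six bins by GFP to DsRed ratio, PSI derived from sequencing read proportions per bin multiplied by bin number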
Label YES when protein stability index is at or above 2; otherwise label NO.

These recorded examples may help you get a feel for the data.
1. NWLGRPSKVLSLQDLCCRTIVSQT [C23Q] :: YES
2. NWLGRESKVLSLQDLCCRTIVSCT [P6E] :: YES

Turning now to a further variant:
[Q] Has NWLGRPSKVLSLQDACCRTIVSCT [L15A] a recorded protein stability index greater than or equal to 2?
[A] YES
